# Tested Target: Recombinant human mPGES-1 (Homo sapiens)
# Sequence (O14684 whole entry): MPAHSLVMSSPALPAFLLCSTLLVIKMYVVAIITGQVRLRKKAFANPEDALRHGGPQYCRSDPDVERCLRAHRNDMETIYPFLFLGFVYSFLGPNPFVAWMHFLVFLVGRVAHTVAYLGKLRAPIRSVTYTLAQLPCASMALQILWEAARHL
# Measurement Protocol: In-vitro mPGES-1 enzyme inhibition assay (PGE2 formation from PGH2, HTRF detection)
# Type: biochemical
# Details: 10 μM test compound; recombinant human mPGES-1 microsomal fraction; read-out: Percentage inhibition at 10 μM
Experimental Endpoint: inhibition at 10 µM (%)
Write down the numeric answer in % and omit the unit.

Here are 5 compounds together with their reported answers.
Compound	Quantity Unit	Result Value
CC1(C)Cc2c(c(C(=O)Nc3ccc(Cl)cc3)cc3nc(Nc4c(Cl)cncc4Cl)[nH]c23)O1	%	95.5
CC1(C)Cc2c(c(C(=O)Nc3ccc(C(F)(F)F)cn3)cc3nc(Nc4c(F)cccc4Cl)[nH]c23)O1	%	98.1
CC1(C)Cc2c(c(C(=O)Nc3ccccc3F)cc3nc(Nc4c(F)cccc4Cl)[nH]c23)O1	%	99.4
Cc1cccc(Cl)c1Nc1nc2cc(C(=O)NCc3ccc(F)cc3C(F)(F)F)c3c(c2[nH]1)CC(C)(C)O3	%	96.8
CC1(C)Cc2c(c(C(=O)Nc3ccc(Cl)cn3)cc3nc(Nc4c(F)cccc4Cl)[nH]c23)O1	%	100

Q) Suppose we examine the compound `Cn1c(Nc2c(F)cccc2Cl)nc2cc(C(=O)Nc3ccc(C(F)(F)F)cn3)c3c(c21)CC(C)(C)O3` ; what inhibition at 10 µM value has been reported?
A) 99.7

Q) Now give it for `CC1(C)Cc2c(c(C(=O)Nc3cc(F)c(F)cc3F)cc3nc(Nc4c(F)cccc4Cl)[nH]c23)O1` too.
A) 94.7

Q) One more compound: `CC1(C)Cc2c(c(C(=O)Nc3ccc(C(F)(F)F)cc3F)cc3nc(Nc4c(Cl)cncc4Cl)[nH]c23)O1`
A) 100

Q) Now try `Cn1c(Nc2c(Cl)cncc2Cl)nc2cc(C(=O)Nc3cccc(C(F)(F)F)c3)c3c(c21)CC(C)(C)O3` .
A) 96.5

Q) Moving on to `Cc1cccc(Cl)c1Nc1nc2cc(C(=O)Nc3ncc(Cl)cc3F)c3c(c2[nH]1)CC(C)(C)O3`
A) 100

Q) Same question for `Cc1cc2c(o1)c(C(=O)Nc1ccccc1F)cc1nc(Nc3c(Cl)cccc3Cl)[nH]c12` please.
A) 96.2

Q) How about this compound: Cc1cc2c(o1)c(C(=O)NC(C)C(C)(C)C)cc1nc(Nc3c(Cl)cncc3Cl)[nH]c12 (stereo not drawn)
A) 97.1

Q) Next entry: `Cn1c(Nc2c(F)cccc2Cl)nc2cc(C(=O)Nc3cccc(C(F)(F)F)c3)c3c(c21)CC(C)(C)O3`
A) 99.2

Q) What about `CC1(C)Cc2c(c(C(=O)Nc3ccccc3C(F)(F)F)cc3nc(Nc4ccccc4Cl)[nH]c23)O1` ?
A) 91.9

Q) Here is the next compound: `O=C(Nc1cc(C(F)(F)F)ccc1F)c1cc2nc(Nc3c(F)cccc3Cl)[nH]c2c2nc(C3CC3)oc12`
A) 98.5

The values you see were collected from patent US8519149B2.
